system: T-47D; assay: viability inhibition at highest dose (% inhibition); higher = more growth inhibition; settings: 4-OH-tamoxifen in medium 1 µM; 72 h
Quick list: viability inhibition at highest dose per entry.

compound | study-system | viability inhibition at highest dose
Cn1cncc1[C@@](N)(c1ccc(Cl)cc1)c1ccc2c(c1)c(-c1cccc(Cl)c1)cc(=O)n2C [Tipifarnib (Zarnestra)] (drug 10000 nM) | T-47D | 14.2
Nc1ncn([C@H]2C[C@H](O)[C@@H](CO)O2)c(=O)n1 [Decitabine (Dacogen)] (drug 10000 nM) | T-47D | -11.2
COc1cc2c(N3CCN(C(=O)Nc4ccc(OC(C)C)cc4)CC3)ncnc2cc1OCCCN1CCCCC1 [Tandutinib] (drug 1000 nM) | T-47D | -11.9
Oc1nc(-c2ccc(C(F)(F)F)cc2)nc2c1CSCC2 [XAV-939] (drug 10000 nM) | T-47D | 1.95
C=CCn1c(=O)c2cnc(Nc3ccc(N4CCN(C)CC4)cc3)nc2n1-c1cccc(C(C)(C)O)n1 [MK-1775] (drug 10000 nM) | T-47D | 16.9

* * *

system: ZR-75-1 Tam2; assay: relative IC50 (midpoint of fitted logistic curve, plateau may be below 50% inhibition; CellTiter-Glo viability); higher = less potent; conditions: 4-OH-tamoxifen in medium 1 µM; 72 h

molecule | unit-annotation | modifier-sign | relative IC50
c1cc(CN2CCCNCCNCCCNCC2)ccc1CN1CCCNCCNCCCNCC1 | nM | > | 2500
CC[C@H](Nc1ncnc2[nH]cnc12)c1nc2cccc(F)c2c(=O)n1-c1ccccc1 | nM | = | 1330
CC(C)C[C@@H](C(=O)N[C@H](C(=O)OC1CCCC1)c1ccccc1)[C@H](O)C(=O)NO | nM | = | 242
Cc1cc(Nc2nc(N[C@@H](C)c3ncc(F)cn3)ncc2Cl)[nH]n1 | nM | > | 1000
CO[C@H]1C[C@@H]2CC[C@@H](C)[C@@](O)(O2)C(=O)C(=O)N2CCCC[C@H]2C(=O)O[C@H]([C@H](C)C[C@@H]2CC[C@@H](OC(=O)C(C)(CO)CO)[C@H](OC)C2)CC(=O)[C@H](C)/C=C(\C)[C@@H](O)[C@@H](OC)C(=O)[C@H](C)C[C@H](C)/C=C/C=C/C=C/1C | nM | = | 1.08
CC1(C)CNc2cc(NC(=O)c3cccnc3NCc3ccncc3)ccc21 | nM | > | 10000
CCNC(=O)c1noc(-c2cc(C(C)C)c(O)cc2O)c1-c1ccc(CN2CCOCC2)cc1 | nM | = | 21.1
CC(C)n1nc(-c2ccc3oc(N)nc3c2)c2c(N)ncnc21 | nM | = | 6.49
N.N.[Cl][Pt][Cl] [Cisplatin] | nM | > | 10000
Cc1c(CN2CCN(C(=O)[C@H](C)O)CC2)sc2c(N3CCOCC3)nc(-c3cnc(N)nc3)nc12 | nM | = | 160
NC(=O)Nc1cc(-c2cccc(F)c2)sc1C(=O)N[C@H]1CCCNC1 | nM | > | 1000
CO[C@H]1C[C@@H]2CC[C@@H](C)[C@@](O)(O2)C(=O)C(=O)N2CCCC[C@H]2C(=O)O[C@H]([C@H](C)C[C@@H]2CC[C@@H](OP(C)(C)=O)[C@H](OC)C2)CC(=O)[C@H](C)/C=C(\C)[C@@H](O)[C@@H](OC)C(=O)[C@H](C)C[C@H](C)/C=C/C=C/C=C/1C | nM | = | 1
CS(=O)(=O)OCCCCOS(C)(=O)=O | nM | > | 100000
NCCCNCCSP(=O)(O)O | nM | > | 10000
CNNCc1ccc(C(=O)NC(C)C)cc1 | nM | > | 10000
COc1cc2c(N3CCN(C(=O)Nc4ccc(OC(C)C)cc4)CC3)ncnc2cc1OCCCN1CCCCC1 | nM | > | 1000
COc1cc(Nc2ncc3c(n2)-c2ccc(Cl)cc2C(c2c(F)cccc2OC)=NC3)ccc1C(=O)O | nM | > | 10000
C=CC(=O)Nc1cc2c(Nc3ccc(F)c(Cl)c3)ncnc2cc1OCCCN1CCOCC1 | nM | = | 2780
CC[C@]1(O)C[C@@H]2CN(CCc3c([nH]c4ccccc34)[C@@](C(=O)OC)(c3cc4c(cc3OC)N(C)[C@H]3[C@@](O)(C(=O)OC)[C@H](OC(C)=O)[C@]5(CC)C=CCN6CC[C@]43[C@@H]65)C2)C1 | nM | = | 78.9
CC[C@]1(O)C[C@H]2CN(CCc3c([nH]c4ccccc34)[C@@](C(=O)OC)(c3cc4c(cc3OC)N(C=O)[C@H]3[C@@](O)(C(=O)OC)[C@H](OC(C)=O)[C@]5(CC)C=CCN6CC[C@]43[C@@H]65)C2)C1 | nM | = | 116
O=S(=O)(c1cccc2cnccc12)N1CCCNCC1 | nM | > | 50000
O=C(O)C(=O)O.[NH-][C@@H]1CCCC[C@H]1[NH-].[Pt+2] | nM | > | 10000
c1ccc2c(CCNc3ccc(Nc4ccncc4)cc3)c[nH]c2c1 | nM | = | 2760
CN[C@@H]1C[C@H]2O[C@@](C)([C@@H]1OC)n1c3ccccc3c3c4c(c5c6ccccc6n2c5c31)C(=O)N[C@H]4O | nM | = | 686
CN1CCN(c2nc(C3=C(c4c[nH]c5ccccc45)C(=O)NC3=O)c3ccccc3n2)CC1 | nM | > | 10000
C[C@]1(c2nc3c(C(N)=O)cccc3[nH]2)CCCN1 | nM | > | 10000
COc1cccc2cc(-c3nc([C@H]4CC[C@H](C(=O)O)CC4)n4ncnc(N)c34)[nH]c12 | nM | = | 198
COc1cc2nccc(Oc3ccc(NC(=O)C4(C(=O)Nc5ccc(F)cc5)CC4)cc3)c2cc1OC [Cabozantinib (XL184)] | nM | > | 1000
Nc1nc(F)nc2c1ncn2[C@@H]1O[C@H](CO)[C@@H](O)[C@@H]1O | nM | > | 10000

* * *

test system: MCF-7; experiment: drug sensitivity score (DSS) (DSS (dimensionless)); higher = more sensitive; extreme values may be limits of the assay; settings: 4-OH-tamoxifen in medium 0 µM; 72 h
Structures can show the parent of a compound that is named as a salt.

compound | drug sensitivity score
O=C(c1ccc(OCCN2CCCCC2)cc1)c1c(-c2ccc(O)cc2)sc2cc(O)ccc12 [Raloxifene HCl] | 3.69
NC(=O)Nc1cc(-c2cccc(F)c2)sc1C(=O)N[C@H]1CCCNC1 [AZD7762] | 3.41
CO[C@@]12[C@H](COC(N)=O)C3=C(C(=O)C(C)=C(N)C3=O)N1C[C@@H]1N[C@@H]12 [Mitomycin C] | 0.369
O=C(O)CC[C@H]1CC[C@@](c2cc(F)ccc2F)(S(=O)(=O)c2ccc(Cl)cc2)CC1 [MK-0752] | 0
CC1(C)CNc2cc(NC(=O)c3cccnc3NCc3ccncc3)ccc21 [Motesanib (AMG-706)] | 0
CN(C)c1nc(N(C)C)nc(N(C)C)n1 [Altretamine] | 0
O=C(Nc1ccncc1)C(=O)c1cn(Cc2ccc(Cl)cc2)c2ccccc12 [Indibulin] | 8.82
CC(=O)OC[C@H]1O[C@@H]([S-])[C@H](OC(C)=O)[C@@H](OC(C)=O)[C@@H]1OC(C)=O.CCP(CC)CC.[Au+] [Auranofin] | 6.78

* * *

test system: BT-474 Tam1; experiment: relative IC50 (midpoint of fitted logistic curve, plateau may be below 50% inhibition; CellTiter-Glo viability); higher = less potent; settings: 4-OH-tamoxifen in medium 1 µM; 72 h
Counter-ions that a name gives are not always drawn.

molecule | relative IC50
C1CN1c1nc(N2CC2)nc(N2CC2)n1 | > 10000 nM
CCCCCCCCc1ccc(CCC(N)(CO)CO)cc1 | 4130 nM
C=CCn1c(=O)c2cnc(Nc3ccc(N4CCN(C)CC4)cc3)nc2n1-c1cccc(C(C)(C)O)n1 | 1780 nM
O=C(/C=C/c1cccc(S(=O)(=O)Nc2ccccc2)c1)NO | 958 nM
CC(C)n1nc(-c2ccc3oc(N)nc3c2)c2c(N)ncnc21 | 20.9 nM
Cc1cccc(-c2nn3c(c2-c2ccnc4ccc(C(N)=O)cc24)CCC3)n1 | > 1000 nM
CCN(CC)CCOc1ccc(C(=C(Cl)c2ccccc2)c2ccccc2)cc1 [Clomifene citrate] | 2800 nM
O=C(CCCCCCC(=O)Nc1ccccc1)NO | 2430 nM
CC(C)n1cnc2c(NCCc3ccc(O)cc3)nc(-c3csc4ccccc34)nc21 | 2120 nM

* * *

system: T-47D Tam1; assay: viability inhibition at highest dose (% inhibition); higher = more growth inhibition; conditions: 4-OH-tamoxifen in medium 1 µM; 72 h
Labelling: viability inhibition at highest dose reported below 4 becomes Criterion met; at or above becomes Criterion not met.

compound | cat
NC(=O)c1ccc(I)c([N+](=O)[O-])c1 (drug 10000 nM) | Criterion not met
CN(N=O)C(=O)N[C@@H](C=O)[C@@H](O)[C@H](O)[C@H](O)CO [Streptozocin] (drug 10000 nM) | Criterion met
CC(C)C(=O)Nc1ccc([N+](=O)[O-])c(C(F)(F)F)c1 [Flutamide] (drug 10000 nM) | Criterion not met
O=P(O)(NCCCl)NCCCl [Ifosfamide mustard] (drug 10000 nM) | Criterion met
N#Cc1ccc(COC[C@H]2O[C@@H](n3c(NCc4ccc(Cl)c(Cl)c4)nc4c(N)ncnc43)[C@H](O)[C@@H]2O)cc1 (drug 10000 nM) | Criterion not met
CC(C)(C)c1cnc(CSc2cnc(NC(=O)C3CCNCC3)s2)o1 [SNS-032] (drug 10000 nM) | Criterion not met

Ref: the supplement of paper PMC4932681
